Attribution: patent US8889671B2

Could you please report measured pIC50 for the items listed next?
Tested Target: Escherichia coli DNA gyrase A/B tetramer (Escherichia coli (strain K12), UniProt P0AES4+P0AES6)
Protocol Notes: DNA gyrase supercoiling activity fluorescence polarisation assay
Format: biochemical
Particulars: Eco Gyr FP Mean IC50, E. coli DNA gyrase supercoiling, 0.3 mM ATP
Just the number, please; pIC50 means minus log10 of the concentration in mol/L.

Please report the recorded pIC50 for C[C@@H]1CN2c3c(cc4c(N5C(=O)OC[C@H]5CN=[N+]=[N-])noc4c3F)CC3(C(=O)NC(=O)NC3=O)[C@H]2[C@H](C)O1 . 6.82

Item under review: COC[C@@H]1COC(=O)N1c1noc2c(F)c3c(cc12)CC1(C(=O)NC(=O)NC1=O)[C@H]1[C@H](C)O[C@H](C)CN31 . Reported pIC50? 6.09

Using the record for C[C@@H]1CN2c3c(cc4c(N5C(=O)OC[C@H]5c5ncnn5C)noc4c3F)CC3(C(=O)NC(=O)NC3=O)[C@H]2[C@H](C)O1 , report its pIC50. 6.22

Quick one: pIC50 for C[C@@H]1CN2c3c(cc4c(N5C[C@H](C)OC5=O)noc4c3F)CC3(C(=O)NC(=O)NC3=O)[C@H]2[C@H](C)O1 ? 5.84

Tell me the measured pIC50 of C[C@@H]1CN2c3c(cc4c(N5C(=O)O[C@H](C)[C@@H]5C)noc4c3F)CC3(C(=O)NC(=O)NC3=O)[C@H]2[C@H](C)O1 , please. 6.28

What pIC50 value was documented for this compound, C[C@@H]1CN2c3c(cc4c(N5C(=O)OC[C@H]5C)noc4c3F)CC3(C(=O)NC(=O)NC3=O)[C@H]2[C@H](C)O1 ? 5.57

What value of pIC50 has been recorded for this entry: C[C@@H]1CN2c3c(cc4c(N5C(=O)OC[C@H]5Cc5ccccc5)noc4c3F)CC3(C(=O)NC(=O)NC3=O)[C@H]2[C@H](C)O1 5.17

// lookup pIC50 for C[C@@H]1CN2c3c(cc4c(N5C(=O)OC[C@@H]5C5CC5)noc4c3F)CC3(C(=O)NC(=O)NC3=O)[C@H]2[C@H](C)O1 6.05

Recorded pIC50 of C[C@@H]1CN2c3c(cc4c(N5C[C@H](CF)OC5=O)noc4c3F)CC3(C(=O)NC(=O)NC3=O)[C@H]2[C@H](C)O1 , please. 7.17

Using the record for C#C[C@H]1COC(=O)N1c1noc2c(F)c3c(cc12)CC1(C(=O)NC(=O)NC1=O)[C@H]1[C@H](C)O[C@H](C)CN31 , report its pIC50. 6.92

Give the measured pIC50 of C=C[C@H]1COC(=O)N1c1noc2c(F)c3c(cc12)CC1(C(=O)NC(=O)NC1=O)[C@H]1[C@H](C)O[C@H](C)CN31 . 7.01

I have this compound here, CON=C[C@H]1CN(c2noc3c(F)c4c(cc23)CC2(C(=O)NC(=O)NC2=O)[C@H]2[C@H](C)O[C@H](C)CN42)C(=O)O1 , and I need its recorded pIC50. 6.36

###

Test system: Staphylococcus aureus
Protocol Notes: Susceptibility testing (MIC) Assay 1, broth microdilution
Type: cell-based
Particulars: Staphylococcus aureus, in vivo strain, MRQR; read-out: Sau(e) MIC
Rule for this label: True means MIC is less than 3 µM; False means MIC is at least 3 µM.

# check: MIC < 3 µM for C[C@@H]1CN2c3c(cc4c(N5C(=O)OC[C@@H]5c5ccncc5)noc4c3F)CC3(C(=O)NC(=O)NC3=O)[C@H]2[C@H](C)O1 False

Determine whether this molecule shows MIC lower than 3 µM (ties excluded): C[C@@H]1CN2c3c(cc4c(N5C(=O)OC[C@@H]5c5ncnn5C)noc4c3F)CC3(C(=O)NC(=O)NC3=O)[C@H]2[C@H](C)O1 False

In the record for C[C@@H]1CN2c3c(cc4c(N5C(=O)OC[C@H]5C)noc4c3F)CC3(C(=O)NC(=O)NC3=O)[C@H]2[C@H](C)O1 , is MIC less than 3 µM? False

Lab note: MIC threshold 3 µM. Does this molecule come in strictly under it? COC[C@H]1CN(c2noc3c(F)c4c(cc23)CC2(C(=O)NC(=O)NC2=O)[C@H]2[C@H](C)O[C@H](C)CN42)C(=O)O1 False

Hello, I'm reviewing records and need to know if MIC of COCCOC[C@H]1COC(=O)N1c1noc2c(F)c3c(cc12)CC1(C(=O)NC(=O)NC1=O)[C@H]1[C@H](C)O[C@H](C)CN31 is below 3 µM. Could you check? False

Here's an entry: C[C@@H]1CN2c3c(cc4c(N5C[C@H](C#N)OC5=O)noc4c3F)CC3(C(=O)NC(=O)NC3=O)[C@H]2[C@H](C)O1 . Is its MIC below 3 µM? True

Please determine if C[C@@H]1CN2c3c(cc4c(N5C(=O)OC[C@@H]5[C@@H](C)O)noc4c3F)CC3(C(=O)NC(=O)NC3=O)[C@H]2[C@H](C)O1 is below 3 µM in terms of MIC. False

Field: below-cutoff. Rule: recorded MIC strictly less than 3 µM. Subject: C[C@@H]1CN2c3c(cc4c(N5C(=O)OC[C@@H]5C#N)noc4c3F)CC3(C(=O)NC(=O)NC3=O)[C@H]2[C@H](C)O1 True

Hello, is MIC of the following molecule strictly smaller than 3 µM? C[C@@H]1CN2c3c(cc4c(N5CCOC5=O)noc4c3F)CC3(C(=O)NC(=O)NC3=O)[C@H]2[C@H](C)O1 False

For C[C@@H]1CN2c3c(cc4c(N5C(=O)OC[C@@H]5Cc5ccccc5)noc4c3F)CC3(C(=O)NC(=O)NC3=O)[C@H]2[C@H](C)O1 , is the recorded MIC below the cut-off of 3 µM? True

Does the reported MIC of COC[C@@H]1CN(c2noc3c(F)c4c(cc23)CC2(C(=O)NC(=O)NC2=O)[C@H]2[C@H](C)O[C@H](C)CN42)C(=O)O1 stay below 3 µM? True

Report whether reported MIC is lower than 3 µM (strictly) for C[C@@H]1CN2c3c(cc4c(N5C(=O)OC[C@@H]5CS(C)(=O)=O)noc4c3F)CC3(C(=O)NC(=O)NC3=O)[C@H]2[C@H](C)O1 False

###

Tested on: Pseudomonas aeruginosa
Protocol Notes: Susceptibility testing (MIC) Assay 2, broth microdilution
Assay type: cell-based
Particulars: PAO1, read-out: Pae MIC
Endpoint Name: MIC

Recorded MIC of CON=C[C@H]1CN(c2noc3c(F)c4c(cc23)CC2(C(=O)NC(=O)NC2=O)[C@H]2[C@H](C)O[C@H](C)CN42)C(=O)O1 [Example 43] , please. > 100 µM

Would you kindly share the measured MIC for C[C@@H]1CN2c3c(cc4c(N5C[C@H](CO)OC5=O)noc4c3F)CC3(C(=O)NC(=O)NC3=O)[C@H]2[C@H](C)O1 [Example 37] ? > 200 µM

Please look up its MIC: COC[C@H]1CN(c2noc3c(F)c4c(cc23)CC2(C(=O)NC(=O)NC2=O)[C@H]2[C@H](C)O[C@H](C)CN42)C(=O)O1 [Example 36] > 200 µM

Reported MIC for C[C@@H]1CN2c3c(cc4c(N5C(=O)OC[C@@H]5C(F)F)noc4c3F)CC3(C(=O)NC(=O)NC3=O)[C@H]2[C@H](C)O1 [Example 51] : what is it? > 200 µM

MIC for CCOC[C@H]1COC(=O)N1c1noc2c(F)c3c(cc12)CC1(C(=O)NC(=O)NC1=O)[C@H]1[C@H](C)O[C@H](C)CN31 [Example 49] ? > 200 µM

Any idea what its MIC is? The compound is C[C@@H]1CN2c3c(cc4c(N5C(=O)OC[C@@H]5C)noc4c3F)CC3(C(=O)NC(=O)NC3=O)[C@H]2[C@H](C)O1 [Example 5] > 200 µM

###

System: Staphylococcus aureus
Protocol Notes: Susceptibility testing (MIC) Assay 1, broth microdilution
Assay type: cell-based
Particulars: Staphylococcus aureus, in vivo strain, MRQR; read-out: Sau(e) MIC
Kindly state MIC for each of the entries shown.
Dear colleague, please return just the value in µM, with no unit written.

# input compound: C[C@@H]1CN2c3c(cc4c(N5C[C@H](CN=[N+]=[N-])OC5=O)noc4c3F)CC3(C(=O)NC(=O)NC3=O)[C@H]2[C@H](C)O1 ; wanted: its MIC 3.1

# lookup: MIC of C[C@@H]1CN2c3c(cc4c(N5C(=O)OC[C@@H]5[C@H](C)O)noc4c3F)CC3(C(=O)NC(=O)NC3=O)[C@H]2[C@H](C)O1 50

What value of MIC has been recorded for this entry: C[C@@H]1CN2c3c(cc4c(N5C(=O)OC[C@H]5c5ccncc5)noc4c3F)CC3(C(=O)NC(=O)NC3=O)[C@H]2[C@H](C)O1 6.2

Bench note: what MIC did C[C@@H]1CN2c3c(cc4c(N5C[C@@H](C#N)OC5=O)noc4c3F)CC3(C(=O)NC(=O)NC3=O)[C@H]2[C@H](C)O1 show? 1.6

Param item = C[C@@H]1CN2c3c(cc4c(N5C(=O)OC[C@@H]5c5cnccn5)noc4c3F)CC3(C(=O)NC(=O)NC3=O)[C@H]2[C@H](C)O1 ; retrieve measured MIC. 6.2

Query (compound): CO[C@H](C)[C@H]1COC(=O)N1c1noc2c(F)c3c(cc12)CC1(C(=O)NC(=O)NC1=O)[C@H]1[C@H](C)O[C@H](C)CN31 ; field requested: MIC 1.6
